Can you tell me Resistance Index (geometric mean) for the items I'm about to list?
# Tested on: recombinant virus, specimen R3 (184V, 215F)
# measurement-notes: RVA susceptibility to RTI, recombinant virus from patient specimen R3
# Assay type: cell-based, HIV-1
# run-conditions: specimen R3, genotype 184V, 21SF; IC50 ratio to NL43; '>' = IC50 above the detectable range in all tests

The following compounds have reported results that may help.
{"query-smiles": "O=C1Nc2ccc(Cl)cc2[C@@](C#CC2CC2)(C(F)(F)F)O1", "measurement-target": "recombinant virus, specimen R3 (184V, 215F)", "Resistance Index (geometric mean)": 1.0}
{"query-smiles": "O=c1[nH]cnc2c1ncn2[C@H]1CC[C@@H](CO)O1", "measurement-target": "recombinant virus, specimen R3 (184V, 215F)", "Resistance Index (geometric mean)": 3.1}
{"query-smiles": "Nc1nc(NC2CC2)c2ncn([C@H]3C=C[C@@H](CO)C3)c2n1", "measurement-target": "recombinant virus, specimen R3 (184V, 215F)", "Resistance Index (geometric mean)": 4.3}
{"query-smiles": "Cc1ccnc2c1NC(=O)c1cccnc1N2C1CC1", "measurement-target": "recombinant virus, specimen R3 (184V, 215F)", "Resistance Index (geometric mean)": 1.2}

# ---- query compound ----
Exam item: Given `Cc1cn([C@H]2C=C[C@@H](CO)O2)c(=O)[nH]c1=O` , state its recorded Resistance Index (geometric mean).
Marked response: 3.2

----------
# System: NL4-3 reference virus
# measurement-notes: Recombinant virus assay (RVA): susceptibility to reverse transcriptase inhibitors, single replication cycle, P4 indicator cells
# Type: cell-based, HIV-1
# run-conditions: NL4-3 reference virus, P4 cells; geometric mean of 20 repeated tests; read-out: Geometric mean IC50
property-label: IC50 (µM)
One number for each entry, in µM.

Exam item: Which value of IC50 has been reported for `O=c1[nH]cnc2c1ncn2[C@H]1CC[C@@H](CO)O1` in the records?
Marked response: 1.61
